propertyLabel: melting point

Answered examples (8):
[[record]]
molecule = "O=C(N/C(=C\\c1cccc2ccccc12)C(=O)N1CCOCC1)c1ccccc1 [Compound 3d]"
testresult = "135 to 137 °C"

[[record]]
molecule = "O=C(N/C(=C\\c1cccs1)C(=O)N1CCN(C(=O)/C(=C/c2cccs2)NC(=O)c2ccccc2)CC1)c1ccccc1 [Compound 4c]"
testresult = "292 to 294 °C"

[[record]]
molecule = "O=C1OC(c2ccccc2)=N/C1=C\\c1cccc2ccccc12 [Compound 2d]"
testresult = "169 to 171 °C"

[[record]]
molecule = "O=C(N/C(=C\\c1cccs1)C(=O)N1CCOCC1)c1ccccc1 [Compound 3c]"
testresult = "184 to 186 °C"

[[record]]
molecule = "CCOC(=O)/C(=C/c1cccs1)NC(=O)c1ccccc1 [Compound 6c]"
testresult = "156 to 159 °C"

[[record]]
molecule = "O=C(N/C(=C\\c1ccccc1)C(=O)N1CCN(C(=O)/C(=C/c2ccccc2)NC(=O)c2ccccc2)CC1)c1ccccc1 [Compound 4a]"
testresult = "265 to 268 °C"

[[record]]
molecule = "O=C(N/C(=C\\c1cccs1)C(=O)N1CCCCC1)c1ccccc1 [Compound 5c]"
testresult = "181 to 182 °C"

[[record]]
molecule = "O=C1OC(c2ccccc2)=N/C1=C\\c1ccc(OCc2ccc(Br)cc2)cc1 [Compound 2b]"
testresult = "199 to 200 °C"


Request the reported melting point associated with O=C(N/C(=C\c1ccccc1)C(=O)N1CCOCC1)c1ccccc1 [Compound 3a]
135 to 138 °C
